- assay.text: Maximum solubility of cholest-4-en-3-one oxime in water and in different oils
- Format: physicochemical
- test.conditions: water
endpoint.label: solubility
Please append the unit to your numeric answer.

Suppose we examine the compound "CC(C)CCC[C@@H](C)[C@H]1CC[C@H]2[C@@H]3CCC4=CC(=NO)CC[C@]4(C)[C@H]3CC[C@]12C" ; what solubility value has been reported?
1 µg/mL

====

- assay.text: Maximum solubility of cholest-4-en-3-one oxime in water and in different oils
- Format: physicochemical
- test.conditions: cotton oil, oil or lipid
endpoint.label: solubility
Please append the unit to your numeric answer.

Suppose we examine the compound "CC(C)CCC[C@@H](C)[C@H]1CC[C@H]2[C@@H]3CCC4=CC(=NO)CC[C@]4(C)[C@H]3CC[C@]12C" ; what solubility value has been reported?
28 mg/mL
